Molecular target: Histone-lysine N-methyltransferase, H3 lysine-79 specific (Homo sapiens, UniProt Q8TEK3)
Sequence (Q8TEK3 whole entry, the tested form may be a part): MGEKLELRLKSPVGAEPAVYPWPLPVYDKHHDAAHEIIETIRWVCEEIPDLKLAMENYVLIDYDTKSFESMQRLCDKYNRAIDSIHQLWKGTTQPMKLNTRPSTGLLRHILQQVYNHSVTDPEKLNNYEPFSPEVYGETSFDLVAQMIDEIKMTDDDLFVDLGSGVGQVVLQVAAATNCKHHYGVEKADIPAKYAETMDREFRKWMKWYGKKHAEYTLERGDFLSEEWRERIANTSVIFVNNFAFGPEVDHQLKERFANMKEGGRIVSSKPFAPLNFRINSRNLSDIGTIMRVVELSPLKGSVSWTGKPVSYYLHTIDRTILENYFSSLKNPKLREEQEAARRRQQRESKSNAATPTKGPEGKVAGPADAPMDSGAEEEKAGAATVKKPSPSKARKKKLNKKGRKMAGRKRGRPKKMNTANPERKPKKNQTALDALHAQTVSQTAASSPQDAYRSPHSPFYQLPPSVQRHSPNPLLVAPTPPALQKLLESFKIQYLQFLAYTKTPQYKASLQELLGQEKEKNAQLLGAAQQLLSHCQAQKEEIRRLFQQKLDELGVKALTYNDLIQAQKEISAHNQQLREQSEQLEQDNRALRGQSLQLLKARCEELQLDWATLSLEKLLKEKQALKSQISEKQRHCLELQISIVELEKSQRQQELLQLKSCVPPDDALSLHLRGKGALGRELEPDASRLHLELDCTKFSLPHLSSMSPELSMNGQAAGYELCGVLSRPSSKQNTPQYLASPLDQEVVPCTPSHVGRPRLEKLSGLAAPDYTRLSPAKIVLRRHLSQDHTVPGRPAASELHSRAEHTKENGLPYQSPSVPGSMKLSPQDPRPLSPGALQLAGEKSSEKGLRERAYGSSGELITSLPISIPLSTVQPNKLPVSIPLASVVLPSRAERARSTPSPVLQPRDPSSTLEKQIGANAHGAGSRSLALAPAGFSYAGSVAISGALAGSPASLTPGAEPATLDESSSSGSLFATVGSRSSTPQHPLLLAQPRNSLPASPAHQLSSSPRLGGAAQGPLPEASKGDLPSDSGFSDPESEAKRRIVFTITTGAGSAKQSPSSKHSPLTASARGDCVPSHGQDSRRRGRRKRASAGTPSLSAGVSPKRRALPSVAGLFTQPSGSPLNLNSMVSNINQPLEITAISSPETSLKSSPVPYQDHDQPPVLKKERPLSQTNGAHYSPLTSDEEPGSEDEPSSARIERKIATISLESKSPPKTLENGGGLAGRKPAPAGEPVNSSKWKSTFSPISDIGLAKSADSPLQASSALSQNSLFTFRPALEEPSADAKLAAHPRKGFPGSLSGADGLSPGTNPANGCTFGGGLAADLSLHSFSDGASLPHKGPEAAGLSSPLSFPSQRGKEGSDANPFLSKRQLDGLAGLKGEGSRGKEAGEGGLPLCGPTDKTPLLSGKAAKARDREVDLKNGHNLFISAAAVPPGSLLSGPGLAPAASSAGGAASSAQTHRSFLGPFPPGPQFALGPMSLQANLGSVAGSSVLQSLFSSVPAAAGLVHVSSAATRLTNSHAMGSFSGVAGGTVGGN
Test: Inhibition of recombinant human N-terminal GST-tagged DOT1L (2 to 416 residues) expressed in Escherichia coli assessed as reduction in histone H3 lysine-N-methyltransferase activity using nucleosomes after 3 hrs in presence of SAM by AlphLisa assay
Record form. Attribute: pIC50. Fill in for each entry.
For clarity, pIC50 is expressed as the negative log10 of concentration in mol/L.

IN: Reported pIC50 for C[C@@H]([C@H]1O[C@@H](n2cnc3c(N)ncnc32)[C@H](O)[C@@H]1O)N(C1CC(CCc2nc3cc(C(C)(C)C)ccc3[nH]2)C1)C1CC(CCc2nc3cc(C(C)(C)C)ccc3[nH]2)C1 (some centres undefined) : what is it?
OUT: 5.67

IN: Then what about the molecule C[C@@H]([C@H]1O[C@@H](n2cnc3c(N)ncnc32)[C@H](O)[C@@H]1O)N(C1CCC1)C1CC(CCc2nc3cc(C(C)(C)C)ccc3[nH]2)C1 (some centres undefined) ?
OUT: 5.84

IN: And the next one, `CC(C)N(CCCNC(=O)Nc1ccc(C(C)(C)C)cc1)[C@@H](C)[C@H]1O[C@@H](n2cnc3c(N)ncnc32)[C@H](O)[C@@H]1O` ?
OUT: 8.20

IN: Likewise for C[C@H](NC1CC(CCc2nc3cc(C(C)(C)C)ccc3[nH]2)C1)[C@H]1O[C@@H](n2cnc3c(N)ncnc32)[C@H](O)[C@@H]1O (some centres undefined) ?
OUT: 6.16

src = ChEMBL document CHEMBL4043280
